assay-text: Inhibition of Plasmodium falciparum falcipain-2 after 12 hrs by fluorescence spectroscopy-based on-bead assay
Parameters: concentration or dose not given beside the values
measurement-parameters: concentration not given here
Peptide text beside a SMILES is read from it.
property-label: inhibition

>>> observed_result("CC(C)[C@H](NC(=O)[C@@H](NC(=O)[C@H](Cc1ccccc1)NC(=O)[C@H](CC(N)=O)NC(=O)/C=C/C(=O)NCC(=O)NCC(=O)N[C@@H](Cc1ccccc1)C(=O)O)C(C)C)C(N)=O (HELM PEPTIDE1{[O=C(/C=C/C(=O)[*:2])NCC(=O)NCC(=O)N[C@@H](Cc1ccccc1)C(=O)O].N.F.V.V.[am]}$$$$V2.0)")
"40%"
>>> observed_result("CC(C)[C@H](NC(=O)[C@H](C)NC(=O)[C@@H](NC(=O)[C@H](CC(N)=O)NC(=O)/C=C/C(=O)NCC(=O)NCC(=O)N[C@@H](Cc1ccccc1)C(=O)O)c1ccccc1)C(N)=O (HELM PEPTIDE1{[O=C(/C=C/C(=O)[*:2])NCC(=O)NCC(=O)N[C@@H](Cc1ccccc1)C(=O)O].N.[Phg].A.V.[am]}$$$$V2.0)")
"64%"

Using the record for CC[C@H](C)[C@H](NC(=O)[C@H](CC(N)=O)NC(=O)/C=C/C(=O)N[C@@H](C)C(=O)NCC(=O)N[C@@H](Cc1ccccc1)C(=O)O)C(=O)N[C@H](C(=O)N[C@H](C(N)=O)C(C)C)C(C)C (HELM PEPTIDE1{[C[C@H](NC(=O)/C=C/C(=O)[*:2])C(=O)NCC(=O)N[C@@H](Cc1ccccc1)C(=O)O].N.I.V.V.[am]}$$$$V2.0) , report its inhibition. 33%

---

Each entry below lists one item and its recorded inhibition value.
assayed-target: Rhodesain (Trypanosoma brucei rhodesiense) (UniProt Q95PM0)
Sequence (Q95PM0 1-450): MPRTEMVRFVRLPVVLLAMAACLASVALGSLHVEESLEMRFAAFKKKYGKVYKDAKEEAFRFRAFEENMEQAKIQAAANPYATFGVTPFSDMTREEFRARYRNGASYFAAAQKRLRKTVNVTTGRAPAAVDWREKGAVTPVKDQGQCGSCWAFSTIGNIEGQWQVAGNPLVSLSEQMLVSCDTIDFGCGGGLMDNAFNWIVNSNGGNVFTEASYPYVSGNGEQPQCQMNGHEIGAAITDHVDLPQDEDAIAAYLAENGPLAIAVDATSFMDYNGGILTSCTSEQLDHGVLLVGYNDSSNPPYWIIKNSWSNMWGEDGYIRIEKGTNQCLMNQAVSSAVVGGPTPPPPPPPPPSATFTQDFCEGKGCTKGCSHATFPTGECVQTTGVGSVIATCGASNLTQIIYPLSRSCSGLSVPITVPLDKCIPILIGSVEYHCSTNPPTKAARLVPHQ
assay-text: Inhibition of Trypanosoma brucei rhodesiense rhodesain after 12 hrs by fluorescence spectroscopy-based on-bead assay
Set-up: concentration or dose not given beside the values
measurement-parameters: concentration not given here
Peptide text beside a SMILES is read from it.
A number alone suffices; assume %.

What value of inhibition on Rhodesain (Trypanosoma brucei rhodesiense) (UniProt Q95PM0) does CC[C@H](C)[C@H](NC(=O)[C@H](Cc1ccccc1)NC(=O)/C=C/C(=O)NCC(=O)NCC(=O)N[C@@H](Cc1ccccc1)C(=O)O)C(=O)N[C@H](C(=O)N[C@H](C(N)=O)C(C)C)C(C)C (HELM PEPTIDE1{[O=C(/C=C/C(=O)[*:2])NCC(=O)NCC(=O)N[C@@H](Cc1ccccc1)C(=O)O].F.I.V.V.[am]}$$$$V2.0) have? 50

Now consider CC(C)[C@H](NC(=O)[C@@H](NC(=O)[C@H](Cc1ccccc1)NC(=O)[C@H](CCC(N)=O)NC(=O)/C=C/C(=O)NCC(=O)NCC(=O)N[C@@H](Cc1ccccc1)C(=O)O)C(C)C)C(N)=O (HELM PEPTIDE1{[O=C(/C=C/C(=O)[*:2])NCC(=O)NCC(=O)N[C@@H](Cc1ccccc1)C(=O)O].Q.F.V.V.[am]}$$$$V2.0) . 42

Now consider CC[C@H](C)[C@H](NC(=O)[C@H](Cc1ccccc1)NC(=O)/C=C/C(=O)N[C@@H](C)C(=O)NCC(=O)N[C@@H](Cc1ccccc1)C(=O)O)C(=O)N[C@H](C(=O)N[C@H](C(N)=O)C(C)C)C(C)C (HELM PEPTIDE1{[C[C@H](NC(=O)/C=C/C(=O)[*:2])C(=O)NCC(=O)N[C@@H](Cc1ccccc1)C(=O)O].F.I.V.V.[am]}$$$$V2.0) . 43

Reference source for all entries: ChEMBL document CHEMBL1155459
